Target: enzyme 5-LO (Homo sapiens)
Construct: Human PMNL cells (polymorphonuclear leukocytes) were used; endogenous in cells
Sequence (P09917 whole entry): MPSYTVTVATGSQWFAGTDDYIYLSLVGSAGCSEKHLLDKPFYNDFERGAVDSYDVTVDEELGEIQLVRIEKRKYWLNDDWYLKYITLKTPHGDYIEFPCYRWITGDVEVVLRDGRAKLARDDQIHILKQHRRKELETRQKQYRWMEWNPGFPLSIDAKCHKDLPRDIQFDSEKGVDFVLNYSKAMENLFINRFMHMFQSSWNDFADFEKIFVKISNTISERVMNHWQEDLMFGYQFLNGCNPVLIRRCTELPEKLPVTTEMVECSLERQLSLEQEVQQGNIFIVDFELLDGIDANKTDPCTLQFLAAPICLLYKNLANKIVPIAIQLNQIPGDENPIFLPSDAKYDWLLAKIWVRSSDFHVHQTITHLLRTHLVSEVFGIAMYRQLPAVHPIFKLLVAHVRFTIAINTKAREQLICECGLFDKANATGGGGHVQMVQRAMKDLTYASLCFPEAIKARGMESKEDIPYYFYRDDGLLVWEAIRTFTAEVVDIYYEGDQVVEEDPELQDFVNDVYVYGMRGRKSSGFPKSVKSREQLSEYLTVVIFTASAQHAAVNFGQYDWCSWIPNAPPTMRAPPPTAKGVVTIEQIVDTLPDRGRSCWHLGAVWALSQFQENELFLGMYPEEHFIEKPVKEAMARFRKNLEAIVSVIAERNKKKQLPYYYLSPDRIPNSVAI
Experiment: Effect on the enzyme 5-LO in vitro (human PMNL cells, arachidonic acid substrate, leukotriene quantification)
Conditions: arachidonic acid as substrate, leukotriene (LT4) quantified
Counter-ions that a name gives are not always drawn.
REPORTED ENDPOINT: IC50 (µM)
Numbers only; they are read as µM.

State the recorded IC50 for this entry: Cc1cc(NC(=O)CN2CCOCC2)cc(C)c1O [Compound 2, hydrochloride]
31
